assay: MB-102 pig plasma concentration after subcutaneous dosing; type: in vivo; details: Yorkshire, pig, plasma, subcutaneous, 3.2 mg/kg, pig 52771, SubQ, 3.2 mpk, 345 min; read-out: MB-102 Pig Plasma Conc.

SMILES_TEXT | concentration at 345 min (µg/mL)
Nc1nc(C(=O)N[C@H](CO)C(=O)O)c(N)nc1C(=O)N[C@H](CO)C(=O)O | 1.14

====

test: MB-102 pig plasma concentration after subcutaneous dosing; assay type: in vivo; details: Yorkshire, pig, plasma, subcutaneous, 3.2 mg/kg, pig 53701, SubQ, 3.2 mpk, 75 min; read-out: MB-102 Pig Plasma Conc.
EXPERIMENTAL_READOUT: concentration at 75 min (ng/mL)

SMILES_TEXT | EXPERIMENTAL_READOUT | OBSERVED_RESULT
Nc1nc(C(=O)N[C@H](CO)C(=O)O)c(N)nc1C(=O)N[C@H](CO)C(=O)O | concentration at 75 min | 5260

====

assay: MB-102 pig plasma concentration after subcutaneous dosing; type: in vivo; details: Yorkshire, pig, plasma, subcutaneous, 3.2 mg/kg, pig 09802, SubQ, 3.2 mpk, 60 min; read-out: MB-102 Pig Plasma Conc.

SMILES_TEXT | concentration at 60 min [ng/mL]
Nc1nc(C(=O)N[C@H](CO)C(=O)O)c(N)nc1C(=O)N[C@H](CO)C(=O)O | 6540

====

assay: MB-102 pig plasma concentration after subcutaneous dosing; type: in vivo; settings: Yorkshire, pig, plasma, subcutaneous, 3.2 mg/kg, pig 09802, SubQ, 3.2 mpk, 180 min; read-out: MB-102 Pig Plasma Conc.

SMILES_TEXT | concentration at 180 min
Nc1nc(C(=O)N[C@H](CO)C(=O)O)c(N)nc1C(=O)N[C@H](CO)C(=O)O | 3070 ng/mL

====

test: MB-102 pig plasma concentration after subcutaneous dosing; format: in vivo; details: Yorkshire, pig, plasma, subcutaneous, 3.2 mg/kg, pig 09802, SubQ, 3.2 mpk, 300 min; read-out: MB-102 Pig Plasma Conc.

COMPOUND | concentration at 300 min / ng/mL
Nc1nc(C(=O)N[C@H](CO)C(=O)O)c(N)nc1C(=O)N[C@H](CO)C(=O)O [MB-102] | 1300

====

test: MB-102 pig plasma concentration after subcutaneous dosing; type: in vivo; conditions: Yorkshire, pig, plasma, subcutaneous, 3.2 mg/kg, pig 52771, SubQ, 3.2 mpk, 60 min; read-out: MB-102 Pig Plasma Conc.
EXPERIMENTAL_READOUT: concentration at 60 min (ng/mL)

COMPOUND | OBSERVED_RESULT
Nc1nc(C(=O)N[C@H](CO)C(=O)O)c(N)nc1C(=O)N[C@H](CO)C(=O)O [MB-102] | 8840

====

test: MB-102 pig plasma concentration after intramuscular dosing; type: in vivo; conditions: Yorkshire, plasma, intramuscular, 3.2 mg/kg; pig 09801, IM, 3.2 mpk, 120 min; read-out: MB-102 Pig Plasma Conc.

SMILES_TEXT | READOUT_UNIT | concentration at 120 min
Nc1nc(C(=O)N[C@H](CO)C(=O)O)c(N)nc1C(=O)N[C@H](CO)C(=O)O | ng/mL | 2130

====

assay: MB-102 pig plasma concentration after intramuscular dosing; format: in vivo; conditions: Yorkshire, plasma, intramuscular, 3.2 mg/kg; pig 09801, IM, 3.2 mpk, 315 min; read-out: MB-102 Pig Plasma Conc.

SMILES_TEXT | concentration at 315 min
Nc1nc(C(=O)N[C@H](CO)C(=O)O)c(N)nc1C(=O)N[C@H](CO)C(=O)O | 298 ng/mL
